Entry source: the supplement of paper PMC9732359

EXPERIMENT DESCRIPTION: protein stability index of a GFP-peptide fusion (yeast GPS) (PSI 1-4); higher = more stable; sorted into four equal gates, so the index is relative within each strain
STATED CONDITIONS: pdr5∆
OBSERVATION TYPE: protein stability index

Answered examples (8):
SQISPEKQTPNKKDKKK [RPN1]
2.9
TVVTVVSTAKFSGKYLK [RPL22A]
3.13
DEDKFKKLKPIVAKYDP [PRP28]
2.9
SKQPNSAIRKCVRVQLI [RPS23A]
2.77
PLVYRHELITNIGETAG [RPB9]
2.88
VAGAGAASGAAAAGGDA [RPP1B]
2.79
FSFGAATPSAKEASQED [YLR335W/NUP2]
3.25
GVHDGEVEPALLLLQDY [RPN1]
3.46

*Q* If you can, please state the reported protein stability index value of ALIENWAADSVSSRVRG [FAS1] .
*A* 3.1

*Q* Give the measured protein stability index of GSLACDTADEAKTLIPS [RPB4] .
*A* 3.42

----------
Below: a set of entries, each annotated with reported protein stability index.
EXPERIMENT DESCRIPTION: protein stability index of a GFP-peptide fusion (yeast GPS) (PSI 1-4); higher = more stable; sorted into four equal gates, so the index is relative within each strain
STATED CONDITIONS: ubr1∆
A bare number is all that is needed in reply.

Examples with their reported protein stability index follow.
PNVDLVTALEVLSLGRP [RGR1]
2.21
AKNEDDPAHSLNYTVIN [AAR2]
2.43

*Q* Which protein stability index value is on record for DDPLENMFGDYSNEPFN [SNF6] ?
*A* 3.16

*Q* Please give the measured protein stability index for this sequence: NYDCKVISIVGGHSLEE [PRP28]
*A* 2.83

*Q* Look up protein stability index: GEKTLSSLALVFALHKY [SMC4]
*A* 2.98

*Q* Requested read-out: protein stability index. Entry: DQNPIQVVVDAITNTGP [RPS5]
*A* 2.13

*Q* Requested read-out: protein stability index. Entry: VGLVMFSQFWYWFPLAH [RPN2]
*A* 1.41

----------
Reported protein stability index values follow for various sequences
EXPERIMENT DESCRIPTION: protein stability index of a GFP-peptide fusion (yeast GPS) (PSI 1-4); higher = more stable; sorted into four equal gates, so the index is relative within each strain
STATED CONDITIONS: ubr1∆
Answer using only a numeral; do not append any unit.

*Q* What measured protein stability index goes with IADSTHVKRITKIAQSQ [ECM29] ?
*A* 1.38

*Q* What value of protein stability index has been recorded for this entry: LLRYGGAFTIALAYAGT [RPN2]
*A* 2.24

*Q* Given the sequence QAIAKNNPQVVNAITVA [SNF5] , what is its reported protein stability index?
*A* 1.61

----------
Property: protein stability index; scope: individual sequences
EXPERIMENT DESCRIPTION: protein stability index of a GFP-peptide fusion (yeast GPS) (PSI 1-4); higher = more stable; sorted into four equal gates, so the index is relative within each strain
STATED CONDITIONS: san1∆
Give the value as a plain number.

The examples below pair each entry with its known result.
ELENSSPELKAELRPLQ [RPS7A]
2.97
QPVNINLDSSITQDGKF [YMR129W/POM152]
3.07

*Q* Endpoint output: protein stability index of EDDNTPAGHAGNPTNIS [YDL088C/ASM4] . Value?
*A* 2.91

*Q* Reported protein stability index for NNNNNNNNNSTRPQMPS [GRR1] : what is it?
*A* 3.06

*Q* Look at this sequence and give its reported protein stability index. LLLRCDDRVDKKFVSQI [POP3]
*A* 3.03

----------
EXPERIMENT DESCRIPTION: protein stability index of a GFP-peptide fusion (yeast GPS) (PSI 1-4); higher = more stable; sorted into four equal gates, so the index is relative within each strain
STATED CONDITIONS: doa10∆
OBSERVATION TYPE: protein stability index
Lab note: record just the number, no unit beside it.

Field: example entries. Status: answers known.
YGTENKDGEDIIFNYVP [CSL4]
3.3
TTPVKLGPGIYCDPNTQ [RRP40]
2.65
LTLKEAELLVLKILKQV [PUP2]
2.05
VAIQQGDIKPEFSPRLH [YML103C/NUP188]
2.45
LGSHSSSQKDGNDFKFN [REC8]
3.25
PFQLDVADMLTPEYAAE [UBP6]
2.95
TDLESKSRMINFLDAPG [SNU114]
2.65
QPIVTGTSVISMKYDNG [PRE4]
2.1
DISAAIVHSSDGHLQFL [DLS1]
2.92
KVKHDSQPFIKFLNFRP [SSN2]
2.88

*Q* Item AHVFVGTCNGDITTSIM [RPN1] has what recorded protein stability index?
*A* 2.72

*Q* What measured protein stability index goes with GRTPNISNGTINIQKKL [SIR4] ?
*A* 2.37

*Q* What value of protein stability index has been recorded for this entry: ITLLPSSLKESSPDTMK [SNF12]
*A* 2.96

----------
EXPERIMENT DESCRIPTION: protein stability index of a GFP-peptide fusion (yeast GPS) (PSI 1-4); higher = more stable; sorted into four equal gates, so the index is relative within each strain
STATED CONDITIONS: ubr1∆
Below, each entry is listed alongside its reported protein stability index.
Number, no unit, nothing else.

*Q* Quick one: protein stability index for LTSVTRHGFNRSNTGAL [RPO21] ?
*A* 2.51

*Q* Any idea what its protein stability index is? The sequence is SNTVNANNYSSNIGNNS [YDL088C/ASM4]
*A* 3.19

*Q* Fill in the blank: the reported protein stability index of DAELMADEEEEIVDTYQ [ISW2] is ____.
*A* 1.24

*Q* State the recorded protein stability index for this entry: PNFDWDLCSSVLSQFER [ROX3]
*A* 2.59

*Q* Which value of protein stability index has been reported for VAKVDEEGRAIPGEYIT [RPS21B] in the records?
*A* 2.77

*Q* Please look up its protein stability index: LKKDIESLRGILHVRAQ [SRP72]
*A* 2.07

*Q* Quick check: protein stability index of QLNLNNLTPANILNMSM [PGD1] ?
*A* 3.02

----------
EXPERIMENT DESCRIPTION: protein stability index of a GFP-peptide fusion (yeast GPS) (PSI 1-4); higher = more stable; sorted into four equal gates, so the index is relative within each strain
STATED CONDITIONS: ubr1∆
OBSERVATION TYPE: protein stability index
// return just the number, without any unit appended

TTQGGLTSVTRHGFNRS [RPO21]
3.26
PEYEKAMQYVCGDSIIC [SMC1]
1.89
YGYWFDCRMGNFYIQYD [AAR2]
2.49
FQHILRLLNTNVDGNIK [RPS18A]
2.59
KLLGIGDIESLFEQLQT [SRP54]
2.67

*Q* Quick one: protein stability index for KKDIKIGTNDLFQVESA [SIR4] ?
*A* 2.33

*Q* What protein stability index value was documented for this sequence, SWNESEDTLSGYDPIVS [PRP28] ?
*A* 3.44

*Q* Fill in: protein stability index of LPLWHLLNRIPRMYHIG [POP1] is ___
*A* 2.63

*Q* Would you kindly share the measured protein stability index for EVTKGEKTYTKAPKIQR [RPS6A] ?
*A* 3.53

*Q* For the sequence shown here, HRWGTKKLPRKTHRGLR [RPL3] , give the reported protein stability index.
*A* 3.34

*Q* What does the record list as protein stability index for EEASQLIEYMENDAKKS [NUT1] ?
*A* 3.04

*Q* protein stability index for IVDDYWESLAKKQNLSS [SWP82] ?
*A* 2.96

*Q* May I ask what protein stability index has been recorded for NQIPVTEHSKVTRFDEK [SRB6] ?
*A* 2.87

*Q* Entry IESQMRDLILTEYGRKY [PRP8] has what protein stability index?
*A* 3.03

----------
EXPERIMENT DESCRIPTION: protein stability index of a GFP-peptide fusion (yeast GPS) (PSI 1-4); higher = more stable; sorted into four equal gates, so the index is relative within each strain
STATED CONDITIONS: san1∆
sequences and their reported protein stability index

Known results for sequences:
IHSMNENPTPEKGNAKM [SIR3]
3.03
EREQPQENKNIDDENIT [SRB4]
3.07
YNILGNLGIPKIAYRGV [SSN2]
1.55

*Q* Which protein stability index value belongs to HLIPNEIKGASETPLQK [RPN4] ?
*A* 1.55

*Q* Returns the measured protein stability index for the input sequence. Input: YSNEPFNTNFDDEFGDL [SNF6]
*A* 2.99

*Q* Report protein stability index for LESEIASSSAKLIEKKS [SMC2] please.
*A* 3.08
